STUDY_TARGET: T1, cynomolgus (Macaca fascicularis) ST2L extracellular domain with C-terminal His6 tag (Macaca fascicularis (cynomolgus), UniProt Q01638 19-321 (human entry))
T1 construct: also called cyno ST2L-ECD; cynoST2L-ECD
T1 chain: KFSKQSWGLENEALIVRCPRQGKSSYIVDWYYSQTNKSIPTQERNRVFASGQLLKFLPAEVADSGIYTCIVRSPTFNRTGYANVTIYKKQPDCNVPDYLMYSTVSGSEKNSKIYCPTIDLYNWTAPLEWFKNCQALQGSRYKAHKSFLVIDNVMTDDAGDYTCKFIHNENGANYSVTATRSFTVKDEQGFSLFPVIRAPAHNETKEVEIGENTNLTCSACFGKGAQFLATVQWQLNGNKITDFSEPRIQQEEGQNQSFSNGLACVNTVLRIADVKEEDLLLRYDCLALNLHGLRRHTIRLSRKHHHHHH
ASSAY_PROTOCOL: SPR, mAb captured, ST2L-ECD in solution
This listing pairs binders with measured koff.
MEASURE: koff (s⁻¹)

STLM232 (antibody, V domains shown, VH STLH201 + VL STLL272) VH: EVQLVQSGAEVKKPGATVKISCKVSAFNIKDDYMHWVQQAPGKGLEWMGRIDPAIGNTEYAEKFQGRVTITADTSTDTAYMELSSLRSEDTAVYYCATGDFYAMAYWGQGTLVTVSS VL: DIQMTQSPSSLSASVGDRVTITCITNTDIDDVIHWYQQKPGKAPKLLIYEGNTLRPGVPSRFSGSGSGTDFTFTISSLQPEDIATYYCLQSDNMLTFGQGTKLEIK :: 0.00797
STLM228 (antibody, V domains shown, VH STLH201 + VL STLL276) VH: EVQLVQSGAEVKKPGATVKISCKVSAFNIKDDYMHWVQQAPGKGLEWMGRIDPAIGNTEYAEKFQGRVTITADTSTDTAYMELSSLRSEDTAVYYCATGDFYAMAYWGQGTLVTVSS VL: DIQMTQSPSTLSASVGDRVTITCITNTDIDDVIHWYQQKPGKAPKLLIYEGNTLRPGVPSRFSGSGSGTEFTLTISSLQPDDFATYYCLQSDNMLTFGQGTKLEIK :: 0.0155
STLM215 (antibody, V domains shown, frameworks VH3-23 / Vk-L6) VH: EVQLLESGGGLVQPGGSLRLSCAASGFTFSSYDMFWVRQAPGKGLEWVSAIAGEGGRTYYADSVKGRFTISRDNSKNTLYLQMNSLRAEDTAVYYCARDPWSTEGSFFVLDYWGQGTLVTVSS VL: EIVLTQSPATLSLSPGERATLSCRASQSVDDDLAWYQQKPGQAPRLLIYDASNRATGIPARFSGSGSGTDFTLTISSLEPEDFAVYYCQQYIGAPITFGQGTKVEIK :: 0.000369
STLM230 (antibody, V domains shown, VH STLH201 + VL STLL274) VH: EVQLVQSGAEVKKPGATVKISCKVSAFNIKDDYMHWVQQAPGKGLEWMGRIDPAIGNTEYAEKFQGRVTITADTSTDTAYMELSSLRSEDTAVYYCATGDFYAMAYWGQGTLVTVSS VL: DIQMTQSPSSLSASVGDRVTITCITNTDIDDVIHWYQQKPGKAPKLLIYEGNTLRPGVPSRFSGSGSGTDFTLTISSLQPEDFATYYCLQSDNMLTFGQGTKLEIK :: 0.0073
STLM222 (antibody, V domains shown, frameworks VH3-23 / Vk-L6) VH: EVQLLESGGGLVQPGGSLRLSCAASGFTFSIYSMFWVRQAPGKGLEWVSDIGGEGGGTSYADSVKGRFTISRDNSKNTLYLQMNSLRAEDTAVYYCARDPWSTEGSFFVLDYWGQGTLVTVSS VL: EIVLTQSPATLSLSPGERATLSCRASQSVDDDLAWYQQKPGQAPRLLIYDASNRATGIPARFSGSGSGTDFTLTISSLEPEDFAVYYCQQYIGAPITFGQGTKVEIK :: 0.000345
